- PROTOCOL TEXT: Acute toxicity in the rat
- RUN PARAMETERS: in vivo, po
ENDPOINT: LD50

>>> df
                           molecular_string  endpoint  measured_value
0  Oc1cc(O)c2c(c1)O[C@@]1(c3ccc(O)c(O)c3)Oc3cc(O)c4c(c3[C@@H]2[C@H]1O)O[C@H](c1ccc(O)c(O)c1)[C@H](O)C4      LD50    > 6000 mg/kg

* * *

- PROTOCOL TEXT: Acute toxicity in the rat
- RUN PARAMETERS: in vivo, ip

COMPOUND	LD50
Oc1cc(O)c2c(c1)O[C@@]1(c3ccc(O)c(O)c3)Oc3cc(O)c4c(c3[C@@H]2[C@H]1O)O[C@H](c1ccc(O)c(O)c1)[C@H](O)C4 [Proanthocyanidine A2]	> 3000 mg/kg
